Recorded values, source patent EP4796557A1.

Reported Enzymolysis efficiency (%) values for the following compounds.
# subject-of-test: MMP9 (Homo sapiens, UniProt P14780)
# Sequence (P14780 107-707 limits assumed, species assumed): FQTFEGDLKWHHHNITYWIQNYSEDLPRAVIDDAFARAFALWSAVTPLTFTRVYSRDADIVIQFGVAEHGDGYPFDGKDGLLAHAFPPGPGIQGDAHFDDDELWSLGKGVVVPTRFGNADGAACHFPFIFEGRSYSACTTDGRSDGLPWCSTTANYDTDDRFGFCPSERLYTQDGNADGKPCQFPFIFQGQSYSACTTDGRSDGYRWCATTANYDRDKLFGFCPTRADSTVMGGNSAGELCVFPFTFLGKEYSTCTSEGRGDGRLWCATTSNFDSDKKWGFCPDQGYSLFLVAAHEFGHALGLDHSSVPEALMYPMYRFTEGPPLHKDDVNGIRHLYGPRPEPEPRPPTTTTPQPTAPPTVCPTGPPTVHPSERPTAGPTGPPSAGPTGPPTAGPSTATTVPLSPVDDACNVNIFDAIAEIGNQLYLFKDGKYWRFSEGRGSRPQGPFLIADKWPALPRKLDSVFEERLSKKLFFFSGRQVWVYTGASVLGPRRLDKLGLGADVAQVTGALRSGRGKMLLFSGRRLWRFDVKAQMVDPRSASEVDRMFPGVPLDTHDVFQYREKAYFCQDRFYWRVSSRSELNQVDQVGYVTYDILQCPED
# assay-text: Enzymolysis assay of polypeptides by MMP9 (RP-HPLC)
# Format: biochemical
# settings: polypeptide 100 µmol with activated MMP9, 37°C, 4 h, RP-HPLC peak areas
Square brackets hold non-standard residues; d marks the D form. Peptide text beside a SMILES is read from it. Cit = NC(=O)NCCC[C@H](N)C(=O)O
Value expressed in %; do not type the unit.

* CC(=O)NCC(=O)N1CCC[C@H]1C(=O)N[C@@H](CO)C(=O)NCC(=O)N[C@@H](CC(C)C)C(=O)N[C@H](C(=O)N[C@@H](CCCNC(N)=O)C(N)=O)C(C)C [Compound 1-P10] (Ac-GPSGLV[Cit]-NH2) | 27.93
* CC(=O)NCC(=O)N1CCC[C@H]1C(=O)N[C@@H](C)C(=O)N1CCC[C@H]1C(=O)N[C@@H](CC(C)C)C(=O)N[C@H](C(=O)N[C@@H](CCCNC(N)=O)C(N)=O)C(C)C [Compound 2-P25] (Ac-GPAPLV[Cit]-NH2) | 45.37
* CC(=O)NCC(=O)N1CCC[C@H]1C(=O)N[C@@H](C)C(=O)N[C@@H](CC(N)=O)C(=O)N[C@@H](CC(C)C)C(=O)N[C@H](C(=O)N[C@@H](CCCNC(N)=O)C(N)=O)C(C)C [Compound 2-P26] (Ac-GPANLV[Cit]-NH2) | 84.35

Attention now turns to another entry.
For the compound CC(=O)N1CCC[C@H]1C(=O)N[C@@H](CCCNC(N)=O)C(=O)N1CCC[C@H]1C(=O)N[C@@H](CC(C)C)C(=O)N[C@H](C(=O)N[C@@H](CCCNC(N)=O)C(N)=O)C(C)C [Compound 2-P6] (Ac-P[Cit]PLV[Cit]-NH2) , give its reported Enzymolysis efficiency (%).
36.08

----------
# subject-of-test: MMP9 (Homo sapiens)
# assay-text: Enzymolysis assay of polypeptides by MMP9 (RP-HPLC)
# Type: biochemical
# settings: polypeptide 100 µmol with activated MMP9, 37°C, 4 h, RP-HPLC peak areas
The entries below come with measured Enzymolysis efficiency (%) values attached.

Observe how each entry below is paired with its result.
* Ac-GPLGLGGFG-NH2 [Compound 1-P21] | 75.60%
* Ac-GPASLGGFG-NH2 [Compound 1-P18] | 9.10%
* Ac-GPAALGGFG-NH2 [Compound 1-P24] | 37.13%
* Ac-VPLSLGGFG-NH2 [Compound 1-P15] | 33.25%
* Ac-IPVSLGGFG-NH2 [Compound 1-P16] | 13.30%
* Ac-GPSALGGFG-NH2 [Compound 1-P25] | 38.53%
* Ac-GPSGLGGFG-NH2 [Compound 1-P22] | 37.81%
* Ac-GPAGLGGFG-NH2 [Compound 1-P19] | 29.28%

Field: next substance
Please report Enzymolysis efficiency (%) for the following substance: Ac-GPLSLGGFG-NH2 [Compound 1-P17]
27.26%

----------
# subject-of-test: MMP2 (Homo sapiens, UniProt P08253)
# Sequence (P08253 110-660, species assumed): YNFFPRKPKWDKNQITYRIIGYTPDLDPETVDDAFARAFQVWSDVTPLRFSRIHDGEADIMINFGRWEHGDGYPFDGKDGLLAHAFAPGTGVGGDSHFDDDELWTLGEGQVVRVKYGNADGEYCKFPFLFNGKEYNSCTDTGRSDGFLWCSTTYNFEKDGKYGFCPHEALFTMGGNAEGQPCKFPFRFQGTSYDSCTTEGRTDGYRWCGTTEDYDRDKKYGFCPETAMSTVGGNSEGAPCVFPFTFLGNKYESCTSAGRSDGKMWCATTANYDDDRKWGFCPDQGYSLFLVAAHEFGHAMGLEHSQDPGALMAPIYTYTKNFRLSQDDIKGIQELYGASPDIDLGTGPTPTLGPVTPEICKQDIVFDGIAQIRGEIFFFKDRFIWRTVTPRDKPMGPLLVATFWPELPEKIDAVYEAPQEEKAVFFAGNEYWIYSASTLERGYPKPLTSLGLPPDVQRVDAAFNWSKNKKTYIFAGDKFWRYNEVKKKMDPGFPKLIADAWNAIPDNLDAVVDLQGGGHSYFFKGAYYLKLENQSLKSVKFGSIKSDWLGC
# assay-text: Enzymolysis assay of polypeptides by MMP2 (RP-HPLC)
# Type: biochemical
# settings: test polypeptide 100 µmol, activated MMP2, 37°C, 4 h
Decision: Enzymolysis efficiency (%) beneath 50% gives label 1; Enzymolysis efficiency (%) meeting or exceeding 50% gives label 0.

Worked examples, 5 substances total:
* Ac-GPASLGGFG-NH2 [Compound 1-P18] | label 0
* Ac-GPSALGGFG-NH2 [Compound 1-P25] | label 0
* Ac-HVLNLGGFG-NH2 [Compound 1-P14] | label 1
* Ac-GPAGLGGFG-NH2 [Compound 1-P19] | label 0
* Ac-GPSGLGGFG-NH2 [Compound 1-P22] | label 0

Please check: Enzymolysis efficiency (%) for Ac-IPVSLGGFG-NH2 [Compound 1-P16] , strictly under 50% or not?
label 1

Please indicate whether the reported Enzymolysis efficiency (%) of Ac-GPLGLGGFG-NH2 [Compound 1-P21] is strictly below 50%.
label 0

Please state whether Enzymolysis efficiency (%) is below 50% for Ac-GPAALGGFG-NH2 [Compound 1-P24]
label 0
